# credit: patent US9273040B2

TESTED TARGET: human Nav1.7 channels stably expressed in HEK 293 cells (Homo sapiens, UniProt Q15858)
Construct: expressed in transfected cells
Sequence (Q15858 whole entry): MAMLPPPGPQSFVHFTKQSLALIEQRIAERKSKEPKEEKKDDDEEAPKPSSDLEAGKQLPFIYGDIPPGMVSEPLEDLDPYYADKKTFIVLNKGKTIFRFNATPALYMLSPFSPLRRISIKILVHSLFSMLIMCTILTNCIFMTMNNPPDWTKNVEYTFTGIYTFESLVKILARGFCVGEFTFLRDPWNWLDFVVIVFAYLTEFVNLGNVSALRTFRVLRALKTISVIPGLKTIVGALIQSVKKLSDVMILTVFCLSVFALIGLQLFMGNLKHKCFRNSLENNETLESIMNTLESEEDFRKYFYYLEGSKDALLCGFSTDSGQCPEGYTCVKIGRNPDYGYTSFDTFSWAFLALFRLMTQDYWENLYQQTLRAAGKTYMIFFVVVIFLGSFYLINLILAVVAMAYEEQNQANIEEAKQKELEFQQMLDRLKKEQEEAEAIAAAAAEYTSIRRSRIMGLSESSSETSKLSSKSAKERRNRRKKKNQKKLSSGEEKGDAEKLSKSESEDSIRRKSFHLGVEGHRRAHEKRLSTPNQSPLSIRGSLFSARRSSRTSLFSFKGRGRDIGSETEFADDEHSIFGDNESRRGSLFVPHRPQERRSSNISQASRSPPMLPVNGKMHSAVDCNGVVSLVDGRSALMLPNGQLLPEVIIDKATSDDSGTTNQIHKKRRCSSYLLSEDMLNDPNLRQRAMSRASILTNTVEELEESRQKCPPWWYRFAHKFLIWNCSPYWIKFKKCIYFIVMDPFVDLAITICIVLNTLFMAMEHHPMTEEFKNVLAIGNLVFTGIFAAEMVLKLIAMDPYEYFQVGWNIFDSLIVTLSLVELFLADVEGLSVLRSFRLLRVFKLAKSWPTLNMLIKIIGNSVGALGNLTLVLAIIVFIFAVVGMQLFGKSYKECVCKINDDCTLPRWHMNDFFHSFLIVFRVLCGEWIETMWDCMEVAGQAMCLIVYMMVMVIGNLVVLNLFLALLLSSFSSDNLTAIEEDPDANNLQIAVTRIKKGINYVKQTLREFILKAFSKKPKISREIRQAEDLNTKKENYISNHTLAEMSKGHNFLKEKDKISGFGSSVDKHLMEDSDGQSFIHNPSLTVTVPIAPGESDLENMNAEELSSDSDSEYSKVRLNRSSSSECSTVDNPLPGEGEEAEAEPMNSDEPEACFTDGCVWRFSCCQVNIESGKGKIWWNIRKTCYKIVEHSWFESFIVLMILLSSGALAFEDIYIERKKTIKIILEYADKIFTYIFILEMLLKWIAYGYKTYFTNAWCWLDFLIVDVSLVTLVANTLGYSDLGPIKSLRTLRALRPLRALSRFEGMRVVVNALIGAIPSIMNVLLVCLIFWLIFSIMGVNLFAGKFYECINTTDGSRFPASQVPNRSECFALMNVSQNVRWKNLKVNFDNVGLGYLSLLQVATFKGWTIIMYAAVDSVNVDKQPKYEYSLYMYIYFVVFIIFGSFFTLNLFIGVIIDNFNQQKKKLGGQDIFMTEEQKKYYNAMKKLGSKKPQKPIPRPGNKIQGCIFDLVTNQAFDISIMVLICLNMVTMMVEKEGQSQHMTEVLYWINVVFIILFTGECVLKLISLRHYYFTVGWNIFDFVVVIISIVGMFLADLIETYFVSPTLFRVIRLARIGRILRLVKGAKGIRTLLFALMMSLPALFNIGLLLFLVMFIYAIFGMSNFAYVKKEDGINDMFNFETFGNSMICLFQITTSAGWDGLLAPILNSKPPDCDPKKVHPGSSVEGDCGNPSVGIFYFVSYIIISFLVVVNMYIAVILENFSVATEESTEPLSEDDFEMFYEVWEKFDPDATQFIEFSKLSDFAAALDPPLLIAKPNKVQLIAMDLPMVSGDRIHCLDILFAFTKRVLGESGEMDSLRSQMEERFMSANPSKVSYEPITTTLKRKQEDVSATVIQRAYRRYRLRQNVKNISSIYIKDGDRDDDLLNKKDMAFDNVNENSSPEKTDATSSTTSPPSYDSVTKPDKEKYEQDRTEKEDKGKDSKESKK
PROCEDURE SUMMARY: PatchXpress 7000 automated patch-clamp, sodium current
Format: cell-based
EXPERIMENTAL CONDITIONS: 22° C., read-out: potency for the Nav 1.7 sodium ion channel (as measured by PatchXpress)
PROPERTY LABEL: log10 of IC50 (log10 of the value in nM)
The common logarithm of IC50 in nM is what is listed.

These solved cases illustrate the format of a correct answer.
O=c1oc2cc(S(=O)(=O)Nc3ncns3)ccc2n1Cc1ccccc1-c1cccc2c1CNCC2 = 2.04
O=c1oc2cc(S(=O)(=O)Nc3ncns3)c(F)cc2n1C1CCOc2ccc(F)cc21 (stereo not drawn) = 2.05
C[C@H](c1cccc2cncn12)n1c(=O)oc2cc(S(=O)(=O)Nc3ncns3)c(F)cc21 = 2.13
O=c1oc2cc(S(=O)(=O)Nc3ncns3)c(F)cc2n1Cc1cccc2c1CC(N1CCCC1)CC2 (racemic) = 1.48
O=c1oc2cc(S(=O)(=O)Nc3ncns3)c(F)cc2n1Cc1cccc2cncn12 = 1.91

Incoming: Lab note: need log10 of IC50 for C[C@H](c1ccccc1C#CCN)n1c(=O)oc2cc(S(=O)(=O)Nc3ncns3)c(Br)cc21 on human Nav1.7 channels stably expressed in HEK 293 cells (Homo sapiens, UniProt Q15858), anyone have it?
Outgoing: 1.43

Incoming: Lab note: need log10 of IC50 for CN(C)C1CCc2cccc(Cn3c(=O)oc4cc(S(=O)(=O)Nc5ncns5)c(F)cc43)c2C1 (racemic) on human Nav1.7 channels stably expressed in HEK 293 cells (Homo sapiens, UniProt Q15858), anyone have it?
Outgoing: 1.86

Incoming: Lab note: need log10 of IC50 for O=c1oc2cc(S(=O)(=O)Nc3ncns3)c(F)cc2n1Cc1cccc2c1CC(NCCF)CC2 (racemic) on human Nav1.7 channels stably expressed in HEK 293 cells (Homo sapiens, UniProt Q15858), anyone have it?
Outgoing: 1.45

Incoming: Lab note: need log10 of IC50 for O=c1oc2cc(S(=O)(=O)Nc3ncns3)ccc2n1Cc1cccc2c1CCNC2 on human Nav1.7 channels stably expressed in HEK 293 cells (Homo sapiens, UniProt Q15858), anyone have it?
Outgoing: 3.51

Incoming: Lab note: need log10 of IC50 for C[C@H](c1ccccc1C1(O)CNC1)n1c(=O)oc2cc(S(=O)(=O)Nc3ncns3)c(F)cc21 on human Nav1.7 channels stably expressed in HEK 293 cells (Homo sapiens, UniProt Q15858), anyone have it?
Outgoing: 1.53

Incoming: Lab note: need log10 of IC50 for O=c1oc2cc(S(=O)(=O)Nc3ncns3)ccc2n1Cc1ccccc1C1=CC2CCC(C1)N2 (stereo not drawn) on human Nav1.7 channels stably expressed in HEK 293 cells (Homo sapiens, UniProt Q15858), anyone have it?
Outgoing: 2.14

Incoming: Lab note: need log10 of IC50 for O=c1oc2cc(S(=O)(=O)Nc3ncns3)c(F)cc2n1[C@H]1CC2(CCC2)Oc2ccccc21 on human Nav1.7 channels stably expressed in HEK 293 cells (Homo sapiens, UniProt Q15858), anyone have it?
Outgoing: 1.72

Incoming: Lab note: need log10 of IC50 for C[C@H](c1ccccc1C1(F)CNC1)n1c(=O)oc2cc(S(=O)(=O)Nc3nccs3)c(F)cc21 on human Nav1.7 channels stably expressed in HEK 293 cells (Homo sapiens, UniProt Q15858), anyone have it?
Outgoing: 0.60

Incoming: Lab note: need log10 of IC50 for Cc1n[nH]cc1-c1cccc([C@@H](C)n2c(=O)oc3cc(S(=O)(=O)Nc4nccs4)c(F)cc32)c1 on human Nav1.7 channels stably expressed in HEK 293 cells (Homo sapiens, UniProt Q15858), anyone have it?
Outgoing: 2.01

Incoming: Lab note: need log10 of IC50 for O=c1oc2cc(S(=O)(=O)Nc3ncns3)c(F)cc2n1[C@@H]1CC2(CCC2)Oc2ccccc21 on human Nav1.7 channels stably expressed in HEK 293 cells (Homo sapiens, UniProt Q15858), anyone have it?
Outgoing: 1.78

Incoming: Lab note: need log10 of IC50 for NC1CCc2cccc(Cn3c(=O)oc4cc(S(=O)(=O)Nc5ncns5)c(F)cc43)c2C1 (single isomer, unassigned) [Compound 23-27] on human Nav1.7 channels stably expressed in HEK 293 cells (Homo sapiens, UniProt Q15858), anyone have it?
Outgoing: 0.78

Incoming: Lab note: need log10 of IC50 for C[C@@H](c1cccc2ccncc12)n1c(=O)oc2cc(S(=O)(=O)Nc3ncns3)ccc21 on human Nav1.7 channels stably expressed in HEK 293 cells (Homo sapiens, UniProt Q15858), anyone have it?
Outgoing: 2.91

Incoming: Lab note: need log10 of IC50 for O=c1oc2cc(S(=O)(=O)Nc3ncns3)c(F)cc2n1C1CC2(COC2)Oc2ccccc21 (stereo not drawn) on human Nav1.7 channels stably expressed in HEK 293 cells (Homo sapiens, UniProt Q15858), anyone have it?
Outgoing: 2.49
